System: hyper-permeable E. coli 901C
Readout kind: MIC

{"Chemical smiles": "Nc1nc(/C(=N/O)C(=O)N[C@H]2Cc3cc(F)cc(C(=O)O)c3OB2O)cs1", "Target or system": "hyper-permeable E. coli 901C", "Reported value": "< 64 µg/mL"}
{"Chemical smiles": "O=C(N[C@H]1Cc2cccc(C(=O)O)c2OB1O)/C(=N\\O)c1ccc2c(c1)CNC2", "Target or system": "hyper-permeable E. coli 901C", "Reported value": "< 64 µg/mL"}
{"Chemical smiles": "Nc1nc(/C(=N/O)C(=O)N[C@H]2Cc3cc(F)c(F)c(C(=O)O)c3OB2O)cs1", "Target or system": "hyper-permeable E. coli 901C", "Reported value": "< 64 µg/mL"}
{"Chemical smiles": "NCc1ccc(/C(=N/O)C(=O)N[C@H]2Cc3cccc(C(=O)O)c3OB2O)cc1", "Target or system": "hyper-permeable E. coli 901C", "Reported value": "> 128 µg/mL"}
{"Chemical smiles": "CCNc1nc(/C(=N/O)C(=O)N[C@H]2Cc3cccc(C(=O)O)c3OB2O)cs1", "Target or system": "hyper-permeable E. coli 901C", "Reported value": "> 128 µg/mL"}
{"Chemical smiles": "Nc1nc(/C(=N/O)C(=O)N[C@H]2Cc3cc(CO)cc(C(=O)O)c3OB2O)cs1", "Target or system": "hyper-permeable E. coli 901C", "Reported value": "> 128 µg/mL"}
{"Chemical smiles": "CC(C)CO/N=C(\\C(=O)N[C@H]1Cc2cccc(C(=O)O)c2OB1O)c1csc(N)n1", "Target or system": "hyper-permeable E. coli 901C", "Reported value": "< 64 µg/mL"}
{"Chemical smiles": "Nc1nc(/C(=N/OCC(=O)NC2CCNCC2)C(=O)N[C@H]2Cc3cccc(C(=O)O)c3OB2O)cs1", "Target or system": "hyper-permeable E. coli 901C", "Reported value": "< 64 µg/mL"}
